TARGET UNDER TEST: human AspH (His6-AspH315–758) (Homo sapiens, UniProt Q12797)
Construct: N-Terminally His6-tagged human AspH315–758 (His6-AspH315–758) was produced in Escherichia coli BL21 (DE3) cells; made in house; host or cells: Escherichia coli BL21 (DE3), pET-28a(+) vector
Sequence (Q12797 315-758): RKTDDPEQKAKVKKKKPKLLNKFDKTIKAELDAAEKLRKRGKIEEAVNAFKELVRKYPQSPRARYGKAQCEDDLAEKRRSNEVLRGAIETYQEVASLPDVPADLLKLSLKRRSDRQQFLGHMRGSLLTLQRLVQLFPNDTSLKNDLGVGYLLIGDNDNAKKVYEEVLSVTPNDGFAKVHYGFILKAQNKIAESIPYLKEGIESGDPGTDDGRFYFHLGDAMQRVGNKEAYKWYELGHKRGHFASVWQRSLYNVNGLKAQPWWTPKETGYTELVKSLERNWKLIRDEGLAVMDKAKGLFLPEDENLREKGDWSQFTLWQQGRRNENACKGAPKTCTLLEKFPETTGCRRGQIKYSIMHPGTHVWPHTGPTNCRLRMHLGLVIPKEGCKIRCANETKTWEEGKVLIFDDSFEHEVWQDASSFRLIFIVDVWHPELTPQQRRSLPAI
EXPERIMENTAL PROTOCOL: SPE-MS AspH inhibition assay (hFX-CP101-119 substrate hydroxylation)
Assay type: biochemical
TEST SETTINGS: AspH-inhibitor screening, 384-well Plate 1, substrate conversion
Classification field: Met = Plate 1 (% conversion) at or over 50%; Not met = Plate 1 (% conversion) under 50%.

| COMPOUND | CLASS NAME |
| --- | --- |
| Nc1nc(Cl)nc2c1ncn2[C@@H]1O[C@H](CO)[C@@H](O)[C@@H]1F | Not met |
| CC(C)(C)c1nc(-c2cccc(NS(=O)(=O)c3c(F)cccc3F)c2F)c(-c2ccnc(N)n2)s1.CS(=O)(=O)O [Dabrafenib Mesylate] | Not met |
| C[C@@H](CN1CC(=O)NC(=O)C1)N1CC(=O)NC(=O)C1 | Not met |
| N.N.O=C([O-])C1(C(=O)[O-])CCC1.[Pt+2] | Not met |
| COc1ncc(-c2ccc3nccc(-c4ccnnc4)c3c2)cc1NS(=O)(=O)c1ccc(F)cc1F | Not met |
| CN1CCc2c(c3ccccc3n2Cc2ccc(C(=O)NO)cc2)C1.Cl [Tubastatin A HCl] | Met |
| Clc1ccc(C(c2ccccc2Cl)C(Cl)Cl)cc1 (stereo not drawn) | Not met |
| O=C(CCBr)N1CCN(C(=O)CCBr)CC1 | Not met |
| C[C@@H](Oc1cc(-c2cnn(C3CCNCC3)c2)cnc1N)c1c(Cl)ccc(F)c1Cl [Crizotinib] | Met |
| C=CCc1cccc(/C=N/NC(=O)CN2CCN(Cc3ccccc3)CC2)c1O | Not met |
| N#CCNC(=O)c1ccc(-c2ccnc(Nc3ccc(N4CCOCC4)cc3)n2)cc1 | Not met |

---

TARGET UNDER TEST: human AspH (His6-AspH315–758) (Homo sapiens)
Construct: N-Terminally His6-tagged human AspH315–758 (His6-AspH315–758) was produced in Escherichia coli BL21 (DE3) cells; made in house; host or cells: Escherichia coli BL21 (DE3), pET-28a(+) vector
EXPERIMENTAL PROTOCOL: SPE-MS AspH inhibition assay (hFX-CP101-119 substrate hydroxylation)
Format: biochemical
TEST SETTINGS: AspH-inhibitor screening, 384-well Plate 1, substrate conversion
Recorded Plate 1 (% conversion), one value per entry.

| ITEM SMILES | UNITS | Plate 1 (% conversion) |
| --- | --- | --- |
| CCc1c2c(nc3ccc(OC(=O)N4CCC(N5CCCCC5)CC4)cc13)-c1cc3c(c(=O)n1C2)COC(=O)[C@]3(O)CC | % | 48.98 |
| C=CC(=O)N1CCC[C@@H](n2nc(-c3ccc(Oc4ccccc4)cc3)c3c(N)ncnc32)C1 | % | 49.45 |
| Cc1c(Cn2c(C)nc3c(C(=O)O)cc(N4CCOCC4)cc32)cccc1C(F)(F)F | % | 49.98 |

---

Recorded Plate 1 (% inhibition), one value per entry.
TARGET UNDER TEST: human AspH (His6-AspH315–758) (Homo sapiens)
Construct: N-Terminally His6-tagged human AspH315–758 (His6-AspH315–758) was produced in Escherichia coli BL21 (DE3) cells; made in house; host or cells: Escherichia coli BL21 (DE3), pET-28a(+) vector
EXPERIMENTAL PROTOCOL: SPE-MS AspH inhibition assay (hFX-CP101-119 substrate hydroxylation)
Type: biochemical
TEST SETTINGS: AspH-inhibitor screening, 384-well Plate 1

| MOLECULE | TARGET UNDER TEST | UNITS | Plate 1 (% inhibition) |
| --- | --- | --- | --- |
| CN(Cc1cnc2nc(N)nc(N)c2n1)c1ccc(C(=O)N[C@@H](CCC(=O)O)C(=O)O)cc1 [Abitrexate/Methotrexate] | human AspH (His6-AspH315–758) (Homo sapiens) | % | 8.67 |
| Cc1ccc(Nc2nccc(N(C)c3ccc4c(C)n(C)nc4c3)n2)cc1S(N)(=O)=O.Cl [Pazopanib hydrochloride] | human AspH (His6-AspH315–758) (Homo sapiens) | % | -0.37 |
| Cc1c(C(=O)Nc2ccc(N3C[C@@H](C)O[C@@H](C)C3)nc2)cccc1-c1ccc(OC(F)(F)F)cc1 | human AspH (His6-AspH315–758) (Homo sapiens) | % | -2.59 |
| Cc1cn(-c2cc(NC(=O)c3ccc(C)c(Nc4nccc(-c5cccnc5)n4)c3)cc(C(F)(F)F)c2)cn1 | human AspH (His6-AspH315–758) (Homo sapiens) | % | -10.38 |
| Cc1ccc(-n2nc(C(C)(C)C)cc2NC(=O)Nc2ccc(OCCN3CCOCC3)c3ccccc23)cc1 | human AspH (His6-AspH315–758) (Homo sapiens) | % | 7.83 |
| Cc1cc2c(F)c(Oc3ncnn4cc(OC[C@@H](C)O)c(C)c34)ccc2[nH]1 | human AspH (His6-AspH315–758) (Homo sapiens) | % | 6.97 |
| Cn1cc(-c2[nH]c3cc(NC(=O)[C@H](N)C4CCCCC4)cc4c3c2C=NNC4=O)cn1 | human AspH (His6-AspH315–758) (Homo sapiens) | % | -54.30 |
| CC1=C(/C=C/C(C)=C/C=C/C(C)=C/C(=O)O)C(C)(C)CCC1 | human AspH (His6-AspH315–758) (Homo sapiens) | % | 71.19 |
| CC1(C)NC(=O)N(c2ccc([N+](=O)[O-])c(C(F)(F)F)c2)C1=O [Nilutamide] | human AspH (His6-AspH315–758) (Homo sapiens) | % | 4.05 |
| Cc1c(CN2CCN(C(=O)[C@H](C)O)CC2)sc2c(N3CCOCC3)nc(-c3cnc(N)nc3)nc12 | human AspH (His6-AspH315–758) (Homo sapiens) | % | 2.44 |
| Nc1nc(Cl)nc2c1ncn2[C@H]1C[C@H](O)[C@@H](CO)O1 | human AspH (His6-AspH315–758) (Homo sapiens) | % | 3.47 |

---

TARGET UNDER TEST: human AspH (His6-AspH315–758) (Homo sapiens, UniProt Q12797)
Construct: N-Terminally His6-tagged human AspH315–758 (His6-AspH315–758) was produced in Escherichia coli BL21 (DE3) cells; made in house; host or cells: Escherichia coli BL21 (DE3), pET-28a(+) vector
EXPERIMENTAL PROTOCOL: SPE-MS AspH inhibition assay (hFX-CP101-119 substrate hydroxylation)
Type: biochemical
TEST SETTINGS: AspH-inhibitor screening, Plate 1-duplicate, substrate conversion
Starred links: 1 amine or outer side, 2 acyl side, 3 side chain; linkers in the order of their positions; H or OH if unused. Positions of bridges follow the written chain, without caps; N, C: chain ends. Non-standard residues stand in square brackets, D forms with d. Residues, ends and D or L forms follow the SMILES beside them. Chains are numbered I, II in the order given. Actinocin(9to1) = Cc1c2oc3c(C)ccc(C(=O)[*:1])c3nc-2c(C(=O)[*:2])c(N)c1=O; NMeV = CN[C@H](C(=O)O)C(C)C; Sar = CNCC(=O)O
Recorded Plate 1-duplicate (% conversion), one value per entry.

| COMPOUND | TARGET UNDER TEST | Plate 1-duplicate (% conversion) / % |
| --- | --- | --- |
| CC(C)(C)NC(=O)[C@H]1CC[C@H]2[C@@H]3CC[C@H]4NC(=O)C=C[C@]4(C)[C@H]3CC[C@]12C [Finasteride] | human AspH (His6-AspH315–758) (Homo sapiens, UniProt Q12797) | 49.55 |
| N[C@@H](Cc1ccc(N(CCCl)CCCl)cc1)C(=O)O | human AspH (His6-AspH315–758) (Homo sapiens, UniProt Q12797) | 50.12 |
| C[C@]12O[C@H](C[C@]1(O)CO)n1c3ccccc3c3c4c(c5c6ccccc6n2c5c31)CNC4=O | human AspH (His6-AspH315–758) (Homo sapiens, UniProt Q12797) | 44.07 |
| COc1cc(Nc2ncc(F)c(Nc3ccc4c(n3)NC(=O)C(C)(C)O4)n2)cc(OC)c1OC | human AspH (His6-AspH315–758) (Homo sapiens, UniProt Q12797) | 51.68 |
| COc1c2occc2cc2ccc(=O)oc12 | human AspH (His6-AspH315–758) (Homo sapiens, UniProt Q12797) | 51.25 |
| Cc1c2oc3c(C)ccc(C(=O)N[C@@H]4C(=O)N[C@H](C(C)C)C(=O)N5CCC[C@H]5C(=O)N(C)CC(=O)N(C)[C@@H](C(C)C)C(=O)O[C@@H]4C)c3nc-2c(C(=O)N[C@@H]2C(=O)N[C@H](C(C)C)C(=O)N3CCC[C@H]3C(=O)N(C)CC(=O)N(C)[C@@H](C(C)C)C(=O)O[C@@H]2C)c(N)c1=O [Dactinomycin] (I: T[dV]P[Sar][NMeV] / II: T[dV]P[Sar][NMeV]; ester I:1-I:C, II:1-II:C; linker I:N-II:N via Actinocin(9to1)) | human AspH (His6-AspH315–758) (Homo sapiens, UniProt Q12797) | 56.71 |
| Cn1nnc2c(C(N)=O)ncn2c1=O [Temozolomide] | human AspH (His6-AspH315–758) (Homo sapiens, UniProt Q12797) | 47.85 |
| O=c1[nH]c(=O)n([C@H]2C[C@H](O)[C@@H](CO)O2)cc1C(F)(F)F | human AspH (His6-AspH315–758) (Homo sapiens, UniProt Q12797) | 52.49 |
| CC(=O)O[C@H]1C(=O)[C@@]2(C)[C@H]([C@H](OC(=O)c3ccccc3)[C@]3(O)C[C@H](OC(=O)[C@H](O)[C@@H](NC(=O)c4ccccc4)c4ccccc4)C(C)=C1C3(C)C)[C@]1(OC(C)=O)CO[C@@H]1C[C@@H]2O | human AspH (His6-AspH315–758) (Homo sapiens, UniProt Q12797) | 53.08 |
| Oc1ncnc2[nH]ncc12 | human AspH (His6-AspH315–758) (Homo sapiens, UniProt Q12797) | 49.73 |
| C=CC(=O)N1CCC[C@@H](n2nc(-c3ccc(Oc4ccccc4)cc3)c3c(N)ncnc32)C1 | human AspH (His6-AspH315–758) (Homo sapiens, UniProt Q12797) | 56.80 |
| CCNC(=O)c1noc(-c2cc(C(C)C)c(O)cc2O)c1-c1ccc(CN2CCOCC2)cc1 | human AspH (His6-AspH315–758) (Homo sapiens, UniProt Q12797) | 58.15 |
| O=S(=O)(c1cccc2cnccc12)N1CCCNCC1 | human AspH (His6-AspH315–758) (Homo sapiens, UniProt Q12797) | 45.67 |
| Cn1c(=O)n(-c2ccc(C(C)(C)C#N)cc2)c2c3cc(-c4cnc5ccccc5c4)ccc3ncc21 | human AspH (His6-AspH315–758) (Homo sapiens, UniProt Q12797) | 50.14 |
